MOLM-13 %inh by entry:
test system: MOLM-13; parameters: species or system AML cell lines (8); Primary HTS, single concentration about 10 uM, Cell Titer Glo viability; log10 luminescence, per cent inhibition relative to cycloheximide control; settings: 72 h, relative to cycloheximide control, log10 luminescence; inhibitor
Endpoint: MOLM-13 %inh (%)

> print(dat)
                  compound.structure.string  unit.label  measured.number
1  CCn1c(-c2nonc2N)nc2c(C#CC(C)(C)O)nc(OCCNC)cc21           %            19.98
2  N#Cc1ccc(C(=O)c2cnn(-c3ccc(F)cc3)c2N)cc1           %           -1.146
3        N#Cc1c(C(=O)c2ccccc2)cnn1-c1ccccc1           %            1.329
4  CCn1c(-c2nonc2N)nc2c(C#CC(C)(C)O)nc(CN3CCCC3)cc21           %            -1.58
5  COc1ccc2ncn(-c3cc(O[C@H](C)c4ccccc4C(F)(F)F)c(C(N)=O)s3)c2c1           %            82.54
6  Nc1c(C(=O)c2cccc(-c3cccnc3)c2)cnn1-c1ccc(F)cc1           %            1.631
7      CNC(=O)c1cncc(/C=C/c2c(Cl)cccc2Cl)c1           %            2.751
8  NS(=O)(=O)c1cccc(-c2ccc3c(NC(=O)C4CC4)n[nH]c3c2)c1           %            11.82
